Reference source for all entries: patent US7026282B1

target: soluble recombinant variant of human uPAR (suPAR) (human) (UniProt Q03405); test: SPR (Biacore), ligand over immobilised neuramimidase-treated human suPAR
Sequence (Q03405 23-299, change not shown): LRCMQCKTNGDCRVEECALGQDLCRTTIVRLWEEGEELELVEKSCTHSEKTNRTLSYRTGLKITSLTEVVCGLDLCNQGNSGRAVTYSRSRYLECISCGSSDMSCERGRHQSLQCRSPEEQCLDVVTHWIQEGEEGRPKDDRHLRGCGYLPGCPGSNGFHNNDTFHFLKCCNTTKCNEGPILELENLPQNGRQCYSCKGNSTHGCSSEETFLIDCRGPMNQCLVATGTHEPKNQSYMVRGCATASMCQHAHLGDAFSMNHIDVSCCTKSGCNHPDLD
Non-standard residues stand in square brackets, D forms with d. No end group written: not given here. 1Nal = N[C@@H](Cc1cccc2ccccc12)C(=O)O; Cha = N[C@@H](CC1CCCCC1)C(=O)O
measure: koff (s⁻¹)

a: DXFSRYLWS (D-Asp at 1; beta-cyclohexyl-L-alanine (Cha) at 2; D-Arg at 5) [AE107]
b: D[Cha]F[dS][dR]YL[1Nal]S [AE114]
Thinking about recorded koff values, which is higher, a or b ? To answer, give the label that identifies your chosen option.
a

A: SLNFSQYLWS [AE68]
B: [dE][Cha]F[dS]YYLWS [AE115]
Thinking about recorded koff values, which is higher, A or B ? To answer, give the label that identifies your chosen option.
A
(A: 0.0129 s⁻¹, B: 0.00167 s⁻¹)

I: DFF[dS][dR]YLWS [AE112]
II: LNF[dS]QYLWS [AE111]
III: DXFSRYLWS (beta-cyclohexyl-L-alanine (Cha) at 2; D-Arg at 5) [AE106]
IV: DXFSRYLWS (beta-cyclohexyl-L-alanine (Cha) at 2; D-Ser at 4) [AE110]
Ascending by koff, please: list the binders accordingly. Returns: the labels listed in the requested order.
IV, II, I, III
